test system: L. donovani (strain LdBOB) promastigotes; assay: In vitro drug sensitivity assay, promastigotes; assay type: cell-based, Leishmania donovani; conditions: Leishmania donovani, 72 h, read-out: L. donovani EC50, Promastigote
Assignment: determine reported pEC50 for the given compounds.
// pEC50: -log10(molar conc.)

## Task pEC50 lookup needed for CSc1ccc(OCc2ncc([N+](=O)[O-])n2C)cc1 , thanks.
## Result 5.25

## Task Entry Cn1c([N+](=O)[O-])cnc1COc1ccc(S(C)(=O)=O)cc1 please
## Result 5.32

## Task Entry CCCCCCCCCCCCCCCCOP(=O)([O-])OCC[N+](C)(C)C please
## Result 5.21

## Task Entry Cn1c([N+](=O)[O-])cnc1COc1ccc([S+](C)[O-])cc1 (stereo not shown) [Fexinidazole sulfoxide, fexinidazole sulfoxide] please
## Result 5.51

----------
system: L. donovani (strain LdBOB) axenic amastigotes overexpressing L. major nitroreductase; test: Drug susceptibility of axenic amastigotes overexpressing L. major nitroreductase; assay type: cell-based, Leishmania donovani; details: axenic amastigotes
measure.name: shift in sensitivity, nitroreductase overexpressing vs wildtype (fold)
Number only, in fold; omit the unit.

## Task shift in sensitivity, nitroreductase overexpressing vs wildtype lookup needed for CC1CS(=O)(=O)CCN1/N=C/c1ccc([N+](=O)[O-])o1 (stereo not shown) , thanks.
## Result 27

## Task Entry CSc1ccc(OCc2ncc([N+](=O)[O-])n2C)cc1 please
## Result 19

## Task Entry Cn1c([N+](=O)[O-])cnc1COc1ccc(S(C)(=O)=O)cc1 please
## Result 19

----------
test: Plasma protein binding by equilibrium dialysis; format: in vitro ADME; conditions: mouse
Assignment: determine reported fraction unbound for the given molecules.
// keep it numeric: no unit symbol after the value

## Task fraction unbound lookup needed for CSc1ccc(OCc2ncc([N+](=O)[O-])n2C)cc1 , thanks.
## Result 0.15

## Task Entry Cn1c([N+](=O)[O-])cnc1COc1ccc(S(C)(=O)=O)cc1 please
## Result 0.73

## Task Entry CCCCCCCCCCCCCCCCOP(=O)([O-])OCC[N+](C)(C)C please
## Result 0.002

## Task Entry Cn1c([N+](=O)[O-])cnc1COc1ccc([S+](C)[O-])cc1 (stereo not shown) [Fexinidazole sulfoxide, fexinidazole sulfoxide] please
## Result 0.86
